Tested on: LOC_OS01G13800-cb001
Assay: thermal shift delta Tm vs DMSO control; higher = stronger stabilization (binding);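 also: purified Escherichia coli-expressed rice kinase domain construct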
Conditions: 12.5 µM; protein concentration 2 µM
Values of thermal shift delta Tm greater than or equal to 0.2 °C map to criterion met; values below map to criterion not met.

Use the examples below as a reference point.
{"Compound Structure String": "COc1cc2ncnc(Oc3cccc(NC(=O)Nc4cc(C(C)(C)C(F)(F)F)on4)c3)c2cc1OC", "Class": "criterion not met"}
{"Compound Structure String": "Cn1cnc2c(F)c(Nc3ccc(Br)cc3F)c(C(=O)NOCCO)cc21", "Class": "criterion not met"}

Ask: Please check the record CN(C)Cc1cccc(N=C(c2ccccc2)c2c(O)[nH]c3cc(C(=O)N(C)C)ccc23)c1 and state if its thermal shift delta Tm is at or above 0.2 °C.
Reply: criterion met

Ask: // inclusive: thermal shift delta Tm at least 0.2 °C? input: CCN(CC)CCCCNc1ncc2cc(-c3cc(OC)cc(OC)c3)c(NC(=O)NC(C)(C)C)nc2n1
Reply: criterion met

Ask: Could you tell me if the measured thermal shift delta Tm of C=CC(=O)Nc1cccc(Oc2nc(Nc3ccc(N4CCN(C)CC4)cc3OC)ncc2Cl)c1 reaches 0.2 °C or more?
Reply: criterion met

Ask: Is the recorded value of thermal shift delta Tm equal to or greater than 0.2 °C for this molecule? N#CC[C@H](C1CCCC1)n1cc(-c2ncnc3[nH]ccc23)cn1
Reply: criterion not met

----------
As shown below, each of these molecules has a reported thermal shift delta Tm value.
Tested on: LOC_OS04G35114-cb001
Test: thermal shift delta Tm vs DMSO control; higher = stronger stabilization (binding)
Conditions: 12.5 µM; protein concentration 2 µM
Please state the figure in °C; there is no need to write the unit.

{"Molecule": "C[S+]([O-])c1ccc(-c2nc(-c3ccc(F)cc3)c(-c3ccncc3)[nH]2)cc1 (centres undefined)", "thermal shift delta Tm, °C": 1.35}
{"Molecule": "O=C(Nc1ccccc1C(=O)NC1CCCCNC1=O)c1cc2ccccc2s1 (centres undefined)", "thermal shift delta Tm, °C": 0.94}
{"Molecule": "CN1C(=O)[C@@H](NC(=O)c2n[nH]c(Cc3ccccc3)n2)COc2ccccc21", "thermal shift delta Tm, °C": -0.51}
{"Molecule": "NC(=O)c1cnc2[nH]ccc2c1N[C@@H]1[C@@H]2CC3C[C@H]1C[C@@](O)(C3)C2", "thermal shift delta Tm, °C": 3.87}
{"Molecule": "O=c1sn(-c2cccc3ccccc23)c(=O)n1Cc1ccccc1 [Tideglusib]", "thermal shift delta Tm, °C": 2.38}

Ask: Specify measured thermal shift delta Tm for C[C@@H](N)c1ccc(C(=O)Nc2ccnc3[nH]ccc23)cc1 .
Reply: 1.23

Ask: Consider the molecule O=C(Nc1ccc(-c2ccnc(Nc3ccc(N4CCOCC4)cc3)n2)cc1)C1CCCN1 (centres undefined) and give its recorded thermal shift delta Tm.
Reply: 2.26

Ask: # return recorded thermal shift delta Tm for input N#Cc1ccc2ncnc(NCCc3ccccc3)c2c1 [Senexin A]
Reply: 1.3

Ask: Identify thermal shift delta Tm associated with the molecule COc1cc2nccc(Oc3ccc(NC(=O)NC4CC4)c(Cl)c3)c2cc1C(N)=O [Lenvatinib (E7080)]
Reply: 1.09

----------
System: LOC_OS05G28520-cb001
Test: thermal shift delta Tm vs DMSO control; higher = stronger stabilization (binding)
Conditions: 12.5 µM; protein concentration 2 µM
A collection of molecules and their measured thermal shift delta Tm
Give a bare numeral; the unit °C is implied.

Look over these answered cases.
{"Molecule": "C=CCc1ccc(O)c(-c2ccc(O)c(CC=C)c2)c1 [Honokiol]", "Result Units": "°C", "thermal shift delta Tm": 0.24}
{"Molecule": "CNC(=O)c1cc(Oc2ccc(NC(=O)Nc3cc(C(C)(C)C)nn3-c3ccc4ncccc4c3)c(F)c2)ccn1 [Rebastinib (DCC-2036)]", "Result Units": "°C", "thermal shift delta Tm": 0.81}
{"Molecule": "CONC(=O)c1ccccc1Nc1cc(Nc2cc(C)nn2C(C)C)ncc1Cl", "Result Units": "°C", "thermal shift delta Tm": 0.25}
{"Molecule": "CCS(=O)(=O)N1CC(CC#N)(n2cc(-c3ncnc4[nH]ccc34)cn2)C1", "Result Units": "°C", "thermal shift delta Tm": 0.54}
{"Molecule": "Cc1ccc(CNc2ncnc3ccc(-c4ccc(CO)o4)cc23)o1", "Result Units": "°C", "thermal shift delta Tm": -0.16}
{"Molecule": "Cc1nc(N)sc1-c1ccnc(Nc2ccc(N3CCOCC3)cc2)n1", "Result Units": "°C", "thermal shift delta Tm": 0.36}

Ask: Please respond with reported thermal shift delta Tm (system LOC_OS05G28520-cb001) for Cn1cc(-c2ccc(F)c(C(F)(F)F)c2)nc1C1CCN(c2ncnc3[nH]ncc23)CC1 .
Reply: 0.22

Ask: State recorded thermal shift delta Tm with LOC_OS05G28520-cb001, entry Cc1cc(O)c2c(c1)C(=O)c1cccc(O)c1C2=O [Chrysophanic Acid] , no comment.
Reply: 0.74

Ask: # return thermal shift delta Tm of O=C(NOCC(O)CO)c1cc(Br)c(F)c(F)c1Nc1ccc(I)cc1F (centres undefined) (system: LOC_OS05G28520-cb001)
Reply: 0.42

----------
System: LOC_OS01G63280-cb003
Assay: thermal shift delta Tm vs DMSO control; higher = stronger stabilization (binding)
Conditions: 12.5 µM; protein concentration 2 µM
Measured thermal shift delta Tm values are reported for all entries that follow.
Write the value in °C as a bare number.

The cases that follow already have their thermal shift delta Tm on record.
{"Molecule": "COc1cc2ncnc(Nc3ccc(F)c(Cl)c3)c2cc1OCCCN1CCOCC1 [Gefitinib (ZD1839)]", "Result Units": "°C", "thermal shift delta Tm": 0.4}
{"Molecule": "COCC(=O)NC/C=C/c1ccc2ncnc(Nc3ccc(Oc4ccc(C)nc4)c(C)c3)c2c1", "Result Units": "°C", "thermal shift delta Tm": -0.33}
{"Molecule": "O=C(NCc1cccc(O)c1)Nc1nc(-c2ccncc2)cs1", "Result Units": "°C", "thermal shift delta Tm": -0.09}
{"Molecule": "CC(C)NC(=O)COc1cccc(-c2nc(Nc3ccc4[nH]ncc4c3)c3ccccc3n2)c1", "Result Units": "°C", "thermal shift delta Tm": 0.55}
{"Molecule": "COc1ccc(-c2ccc3ncc4c(c3c2)n(-c2ccc(N3CCNCC3)c(C(F)(F)F)c2)c(=O)n4C)cn1", "Result Units": "°C", "thermal shift delta Tm": 0.17}

Ask: Supply measured thermal shift delta Tm of COc1cc(N2CCC(N)CC2)ccc1Nc1ncc(Cl)c(-c2c[nH]c3ccccc23)n1 in your reply.
Reply: 0.87

Ask: # return recorded thermal shift delta Tm for entry CN1c2ccccc2C(=O)Nc2cnc(Nc3ccc(N4CCC(O)CC4)cc3)nc21
Reply: 2.56

Ask: Supply reported thermal shift delta Tm belonging to this molecule: Cc1c(Cn2c(C)nc3c(C(=O)O)cc(N4CCOCC4)cc32)cccc1C(F)(F)F
Reply: -0.3

Ask: Tell us which thermal shift delta Tm value is on record for Cc1nc(-c2cn3c(n2)-c2ccc(-c4cnn(C(C)(C)C(N)=O)c4)cc2OCC3)n(C(C)C)n1
Reply: 0.16

----------
System: LOC_OS03G50810-cb003
Test: thermal shift delta Tm vs DMSO control; higher = stronger stabilization (binding)
Conditions: 12.5 µM; protein concentration 2 µM
Listed here: items and their measured thermal shift delta Tm.
Provide a numeric answer, followed by its unit.

# example entries with known answers
{"Compound": "CCN1/C(=C/C(C)=O)Sc2ccc(OC)cc21", "Result": "0.32 °C"}
{"Compound": "CNC(=O)c1cc(Oc2ccc(NC(=O)Nc3ccc(Cl)c(C(F)(F)F)c3)c(F)c2)ccn1", "Result": "0.11 °C"}
{"Compound": "COc1nccnc1NS(=O)(=O)c1ccc(NC(=O)/C=C/c2ccc([N+](=O)[O-])s2)cc1 [Necrosulfonamide]", "Result": "0.29 °C"}
{"Compound": "CNC(=O)c1cc(Oc2ccc3nc(N[C@@H]4CCCC[C@H]4O)sc3c2)ccn1", "Result": "0.6 °C"}

Ask: Indicate the recorded thermal shift delta Tm value for this compound: CC(C)(C)NC(=O)c1cncn1C1CCN(c2ccc(-c3nnc(C(F)(F)F)o3)cn2)CC1
Reply: 0.36 °C

Ask: State its thermal shift delta Tm: COc1cc2ncnc(Nc3ccc(Cl)cc3F)c2cc1OC
Reply: 1.2 °C

Ask: Report measured thermal shift delta Tm; entry is O=S(=O)(c1cccc2c(I)cccc12)N1CCCNCC1
Reply: 0.19 °C

Ask: Return thermal shift delta Tm for the following compound: CCn1cc(-c2ccnc3[nH]c(-c4cccc(CN(C)C)c4)cc23)c(-c2ccc(NC(=O)N(C)C)cc2)n1
Reply: 1.14 °C

Ask: Please look at this compound and report its thermal shift delta Tm: COc1cc2ncnc(Nc3ccc(F)c(Cl)c3)c2cc1NC(=O)/C=C/CN1CCCCC1
Reply: 0.95 °C
